Reference source for all entries: PubChem BioAssay AID624072

- System: P. aeruginosa PAK mexAB-oprM, EDDHA, OD600 growth, 28 h
- measurement protocol: iron-limited growth inhibition, mexAB-oprM mutant – whole organism, PAK mexAB-OprM mutant, OD600, EDDHA, dry powder, set 3, dose response (AID 624072)
readout label: AC35

INSERT INTO results (molecule, observed_result) VALUES
  ('N#CC(c1cccc(C(F)(F)F)n1)c1ccc(Cl)cc1F (centres undefined)', '4.24 µM'),
  ('COCCC(C#N)c1ccc(F)cc1 (centres undefined)', '98.3 µM'),
  ('N#CC(c1cccc(Cl)n1)c1ccc(Cl)cc1F (centres undefined)', '6.02 µM'),
  ('N#CC(c1ccc(F)cc1)c1cccc(C(F)(F)F)n1 (centres undefined)', '3 µM'),
  ('N#CC(c1ccc(Cl)cc1)c1cccc(Cl)n1 (centres undefined)', '5.35 µM'),
  ('N#CC(c1ccc(Cl)cc1)c1ccc(Cl)cn1 (centres undefined)', '9.77 µM'),
  ('N#CC(c1ccc(Cl)cc1)c1cccc(C(F)(F)F)n1 (centres undefined)', '3.92 µM'),
  ('CCCCC(c1ccc(Cl)cc1)c1nn[nH]n1 (centres undefined)', '97.2 µM'),
  ('N#CC(c1ccc(Cl)cc1)c1ncccc1Cl (centres undefined)', '6.94 µM');
